B1: glmS ribozyme (parent)
chain: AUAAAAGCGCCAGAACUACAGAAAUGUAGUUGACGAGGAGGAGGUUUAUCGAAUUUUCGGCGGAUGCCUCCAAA

variants of: B1; assay: self-cleavage kobs at 40 uM GlcN6P; higher = faster cleavage; RNA array; details: with glucosamine-6-phosphate
Variants at the floor of the assay were thinned out.
Attribute Measured: self-cleavage kobs at 40 uM GlcN6P

The cases that follow already have their self-cleavage kobs at 40 uM GlcN6P on record.
| Mutant Code | self-cleavage kobs at 40 uM GlcN6P |
| --- | --- |
| C10U U54A | < 1e-05 s⁻¹ |
| G63C C67G | < 1e-05 s⁻¹ |
| G44U A53C C58U C71U | < 1e-05 s⁻¹ |
| C8U G9U | < 1e-05 s⁻¹ |
| A6C G62A | < 1e-05 s⁻¹ |

Fill in: self-cleavage kobs at 40 uM GlcN6P of A36G G43A C58A G62C C68G is ___ < 1e-05 s⁻¹

Fill in: self-cleavage kobs at 40 uM GlcN6P of A15U C61A is ___ < 1e-05 s⁻¹

Fill in: self-cleavage kobs at 40 uM GlcN6P of A6C C34U is ___ < 1e-05 s⁻¹

Fill in: self-cleavage kobs at 40 uM GlcN6P of U45A A64G is ___ 0.000998 s⁻¹

Fill in: self-cleavage kobs at 40 uM GlcN6P of G9U A39U C68U is ___ < 1e-05 s⁻¹

Fill in: self-cleavage kobs at 40 uM GlcN6P of A36G A64G U69G is ___ < 1e-05 s⁻¹

Fill in: self-cleavage kobs at 40 uM GlcN6P of U45C A53G C67G C68A is ___ 3.17e-05 s⁻¹

Fill in: self-cleavage kobs at 40 uM GlcN6P of A14U G32C C50A C68G is ___ 8.36e-05 s⁻¹

Fill in: self-cleavage kobs at 40 uM GlcN6P of G40C G43U C70A is ___ < 1e-05 s⁻¹
